system: KCHSC: kochia (Kochia scoparia); test: Post-emergent Test III, herbicidal activity in wheat and barley; type: in vivo; conditions: probit analysis; dose for 80 percent growth reduction; 21 days after application
The label is yes (1) for GR80 KCHSC below 20 g ai/ha and no (0) for GR80 KCHSC equal to or exceeding 20 g ai/ha.

COc1c(N)nc(-c2ccc(I)cc2F)nc1C(=O)O
no (0)
Nc1c(F)c(-c2ccc(I)cc2F)nc(C(=O)O)c1Cl
no (0)
Nc1c(F)c(-c2ccc(I)c(F)c2F)nc(C(=O)O)c1Cl
no (0)
Nc1cc(-c2ccc(I)c(F)c2F)nc(C(=O)O)c1Cl
no (0)
Nc1c(F)c(-c2ccc(I)c(F)c2)nc(C(=O)O)c1Cl
yes (1)
COC(=O)c1nc(-c2ccc(Br)c(F)c2F)nc(N)c1OC
yes (1)
C#Cc1ccc(-c2nc(C(=O)O)c(Cl)c(N)c2F)c(F)c1
no (0)

###

system: Key Grass and Sedge Weeds as well as Grass Crops; assay: Post-emergent Test II herbicidal activity (Table 6); type: in vivo; details: post-emergence, 336 h, CYPES: yellow nutsedge (Cyperus esculentus), 70 g ai/ha, read-out: Visual Growth Reduction (%) 14 Days After Application, CYPES
Known pest or weed control at 70 g/ha of a selection of molecules
measurementType: pest or weed control at 70 g/ha

Nc1c(F)c(-c2ccc([N+](=O)[O-])cc2)nc(C(=O)O)c1Cl
0 to 29%
COc1c(N)nc(-c2ccc(Br)cc2F)nc1C(=O)O
95 to 100%
C=Cc1c(C(=O)O)nc(-c2ccc(Cl)c(F)c2)c(F)c1N
95 to 100%
COc1c(N)nc(-c2ccc(Br)cc2)nc1C(=O)O
45 to 59%
Nc1c(F)c(-c2ccc(OC(F)F)cc2)nc(C(=O)O)c1Cl
85 to 94%
C#Cc1ccc(-c2nc(C(=O)O)c(Cl)c(N)c2F)cc1
95 to 100%
COC(=O)c1nc(-c2ccc(Br)c(F)c2F)c(F)c(N)c1Cl
95 to 100%
C#Cc1ccc(-c2nc(N)c(OC)c(C(=O)OC)n2)c(F)c1F
0 to 29%
COC(=O)c1nc(-c2ccc(C#N)c(F)c2F)c(F)c(N)c1Cl
0 to 29%

###

test system: Key Broadleaf Weed and Crop Species; assay: Post-emergent Test II herbicidal activity (Table 5); format: in vivo; settings: post-emergence, 336 h; AMARE: redroot pigweed (Amaranthus retroflexus); application rate 70 g ai/ha; 14 days after application; read-out: Visual Growth Reduction (%) 14 Days After Application, AMARE
measurementType: pest or weed control at 70 g/ha

COC(=O)c1nc(-c2ccc([N+](=O)[O-])cc2)c(F)c(N)c1Cl
95 to 100%
Nc1c(F)c(-c2ccc(Cl)c(F)c2)nc(C(=O)O)c1Cl
95 to 100%
COc1c(N)nc(-c2ccc(Br)cc2)nc1C(=O)O
95 to 100%
COC(=O)c1nc(-c2ccc(I)c(F)c2)c(F)c(N)c1Cl
95 to 100%
COC(=O)c1nc(-c2ccc(I)cc2)cc(N)c1Cl
95 to 100%
COC(=O)c1nc(-c2ccccc2)nc(N)c1OC
45 to 59%
COC(=O)c1nc(-c2cccc(F)c2F)c(F)c(N)c1Cl
95 to 100%
Nc1c(F)c(-c2ccc(OC(F)F)cc2)nc(C(=O)O)c1Cl
60 to 74%
Nc1c(F)c(-c2ccc(Br)cc2)nc(C(=O)O)c1Cl
95 to 100%
